tested on: BaF3; experiment: Antiproliferative activity against mouse BaF3 cells harboring EGFR L858R/T790M/C797S triple mutant assessed as inhibition of cell growth incubated for 72 hrs by CellTiter-Glo luminescent assay; type: functional, cell-based; details: BaF3, 72 h
# note: exactly 1000 nM is not below, so it is N; use Y for IC50 strictly under it

# COMPOUND, ASSIGNED CATEGORY
records = [
    ("Nc1nccc(Nc2ccc(NC(=O)C(c3ccccc3)N3Cc4cc(-c5ccc(N6CCCCC6)cc5)ccc4C3=O)cc2)n1 (racemic)", "N"),
    ("CCN(CC)c1ccc(-c2ccc3c(c2)CN(C(C(=O)Nc2ccc(Nc4ccnc(N)n4)cc2)c2ccccc2)C3=O)cc1 (racemic)", "N"),
    ("Nc1nccc(Nc2ccc(NC(=O)C(c3ccccc3)N3Cc4cc(-c5ccc(N6CCNCC6)cc5)ccc4C3=O)cc2Cl)n1 (stereo not given)", "N"),
    ("CN1CCN(c2ccc(-c3ccc4c(c3)CN([C@@H](C(=O)Nc3ccc(Nc5ccnc(N)n5)cc3)c3ccccc3)C4=O)cc2)CC1", "Y"),
    ("COc1nccc(Nc2ccc(NC(=O)C(c3ccccc3)N3Cc4cc(-c5ccc(N6CCNCC6)cc5)ccc4C3=O)cc2)n1 (stereo not given)", "Y"),
    ("C=CC(=O)Nc1cc(Nc2nccc(-c3cn(C)c4ccccc34)n2)c(OC)cc1N(C)CCN(C)C [OSIMERTINIB]", "N"),
    ("Nc1nccc(Nc2ccc(NC(=O)C(c3ccccc3)N3Cc4cc(-c5ccc(N6CCOCC6)cc5)ccc4C3=O)cc2)n1 (racemic)", "N"),
    ("Nc1nccc(Nc2ccc(NC(=O)C(c3ccccc3)N3Cc4ccc(-c5ccc(N6CCNCC6)cc5)cc4C3=O)cc2)n1 (stereo not given)", "N"),
    ("Nc1nccc(Nc2cccc(NC(=O)C(c3ccccc3)N3Cc4cc(-c5ccc(N6CCNCC6)cc5)ccc4C3=O)c2)n1 (stereo not given)", "N"),
    ("CN1CCN(c2ccc(-c3ccc4c(c3)CN([C@H](C(=O)Nc3ccc(Nc5ccnc(N)n5)cc3)c3ccccc3)C4=O)cc2)CC1", "Y"),
    ("Nc1nccc(Nc2ccc(NC(=O)C(c3ccccc3)N3Cc4cc(-c5ccc(N6CCNCC6)cc5)ccc4C3=O)c(Cl)c2)n1 (stereo not given)", "N"),
    ("Cc1nccc(Nc2ccc(NC(=O)C(c3ccccc3)N3Cc4cc(-c5ccc(N6CCNCC6)cc5)ccc4C3=O)cc2)n1 (stereo not given)", "Y"),
    ("O=C(Nc1ccc(Nc2ccncc2)cc1)C(c1ccccc1)N1Cc2cc(-c3ccc(N4CCNCC4)cc3)ccc2C1=O (stereo not given)", "N"),
    ("CN1CCN(c2ccc(-c3ccc4c(c3)CN(C(C(=O)Nc3ccc(Nc5ccnc(N)n5)cc3)c3ccccc3)C4=O)cc2)CC1 (racemic)", "Y"),
]

* * *

Reported IC50 values are given for each entry in this list.
system: A549; test: Antiproliferative activity against human A549 cells assessed as inhibition of cell growth incubated for 72 hrs by MTT assay; type: functional, cell-based; details: A549, 72 h
OBSERVED PROPERTY: IC50

# COMPOUND, RESULT
records = [
    ("Nc1nccc(Nc2ccc(NC(=O)C(c3ccccc3)N3Cc4cc(-c5ccc(N6CCCCC6)cc5)ccc4C3=O)cc2)n1 (racemic)", "> 20 µM"),
    ("Nc1nccc(Nc2ccc(NC(=O)C(c3ccccc3)N3Cc4ccccc4C3=O)cc2)n1 (stereo not drawn)", "> 20 µM"),
    ("Nc1cc(Nc2ccc(NC(=O)C(c3ccccc3)N3Cc4cc(-c5ccc(N6CCNCC6)cc5)ccc4C3=O)cc2)ncn1 (stereo not drawn)", "> 20 µM"),
]

* * *

tested on: BaF3; assay: Antiproliferative activity against mouse BaF3 cells harboring EGFR Del19/T790M/C797S triple mutant assessed as inhibition of cell growth incubated for 72 hrs by CellTiter-Glo luminescent assay; type: functional, cell-based; conditions: BaF3, 72 h
pIC50: −log10 of the molar value.
Items are presented alongside their recorded pIC50.

# COMPOUND, INEQUALITY SIGN, pIC50
records = [
    ("Nc1cc(Nc2ccc(NC(=O)C(c3ccccc3)N3Cc4ccccc4C3=O)cc2)ncn1 (stereo not given)", "<", 5.00),
    ("Nc1nccc(Nc2ccc(NC(=O)C(c3ccccc3)N3Cc4cc(-c5ccc(N6CCNCC6)cc5)ccc4C3=O)cc2)n1 (stereo not given)", "=", 6.16),
    ("Nc1cc(Nc2ccc(NC(=O)C(c3ccccc3)N3Cc4cc(-c5ccc(N6CCNCC6)cc5)ccc4C3=O)cc2)ncn1 (stereo not given)", "=", 5.82),
    ("Nc1nccc(Nc2ccc(NC(=O)C(c3ccccc3)N3Cc4ccccc4C3=O)cc2)n1 (stereo not given)", "<", 5.00),
    ("O=C(Nc1ccc(Nc2ccncn2)cc1)C(c1ccccc1)N1Cc2cc(-c3ccc(N4CCNCC4)cc3)ccc2C1=O (stereo not given)", "=", 5.61),
    ("CN1CCN(c2ccc(-c3ccc4c(c3)CN([C@H](C(=O)Nc3ccc(Nc5ccnc(N)n5)cc3)c3ccccc3)C4=O)cc2)CC1", "=", 6.12),
    ("CN1CCN(c2ccc(-c3ccc4c(c3)CN(C(C(=O)Nc3ccc(Nc5ccnc(N)n5)cc3)c3ccccc3)C4=O)cc2)CC1 (racemic)", "=", 6.21),
    ("Nc1nccc(Nc2ccc(NC(=O)C(c3ccccc3)N3Cc4ccc(-c5ccc(N6CCNCC6)cc5)cc4C3=O)cc2)n1 (stereo not given)", "=", 5.92),
    ("Nc1nccc(Nc2cccc(NC(=O)C(c3ccccc3)N3Cc4cc(-c5ccc(N6CCNCC6)cc5)ccc4C3=O)c2)n1 (stereo not given)", "=", 6.05),
    ("Nc1nccc(Nc2ccc(NC(=O)C(c3ccccc3)N3Cc4cc(-c5ccc(N6CCNCC6)cc5)ccc4C3=O)c(F)c2)n1 (stereo not given)", "=", 6.14),
]
